Target Desc: T1, GST-human NOGO-A56 (human, UniProt Q9NQC3 586-785)
T1 construct: GST-tagged fusion expressed in E. coli BL21 from pGEX-6P1; also called hNOGO; human NOGO 5+6 GST; not shown: Glutathione S-transferase tag encoded by vector pGEX-6P1 (N-terminal, with vector linker)
T1 sequence: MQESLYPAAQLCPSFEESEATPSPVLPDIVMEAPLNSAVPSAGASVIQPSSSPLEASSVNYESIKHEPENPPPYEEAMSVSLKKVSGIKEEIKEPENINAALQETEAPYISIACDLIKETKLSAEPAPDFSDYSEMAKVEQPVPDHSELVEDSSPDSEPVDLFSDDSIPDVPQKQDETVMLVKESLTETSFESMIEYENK
Assay Notes: SPR (Biacore), GST-human NOGO-A56 immobilised, purified antibody as analyte; single experiment
The following binders are listed with their measured Kd values.
# unit: nM | format: bare number

Known Kd results, listed for orientation:
| Binder | Value Kind | Recorded Value |
| --- | --- | --- |
| HcLc (antibody, human IgG1, kappa, V domains shown, also called chimera of 2A10; 2A10 chimeric antibody) VH: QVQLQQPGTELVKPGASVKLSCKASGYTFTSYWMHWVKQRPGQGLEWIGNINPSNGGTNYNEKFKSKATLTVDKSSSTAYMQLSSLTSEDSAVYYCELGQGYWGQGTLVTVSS VL: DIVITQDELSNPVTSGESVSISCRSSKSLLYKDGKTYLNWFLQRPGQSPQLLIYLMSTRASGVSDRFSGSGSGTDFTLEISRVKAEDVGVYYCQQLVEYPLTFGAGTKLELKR | Kd | 1.7 |
| H6L13 (antibody, human IgG1, kappa, V domains shown) VH: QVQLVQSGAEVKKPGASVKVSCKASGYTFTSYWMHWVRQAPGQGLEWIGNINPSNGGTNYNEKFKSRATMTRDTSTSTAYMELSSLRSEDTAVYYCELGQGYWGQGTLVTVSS VL: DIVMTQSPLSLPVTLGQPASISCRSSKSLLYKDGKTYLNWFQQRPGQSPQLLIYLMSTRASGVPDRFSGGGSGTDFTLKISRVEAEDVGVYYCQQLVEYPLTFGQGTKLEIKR | Kd | 6.4 |
| H22L16 (antibody, human IgG1, kappa, V domains shown, human gamma1 mutated constant region, human kappa) VH: QVQLVQSGAEVKKPGASVKVSCKASGYTFTSYWMHWVKQRPGQGLEWIGNINPSNGGTNYNEKFKSKATMTRDTSTSTAYMELSSLRSEDTAVYYCELGQGYWGQGTLVTVSS VL: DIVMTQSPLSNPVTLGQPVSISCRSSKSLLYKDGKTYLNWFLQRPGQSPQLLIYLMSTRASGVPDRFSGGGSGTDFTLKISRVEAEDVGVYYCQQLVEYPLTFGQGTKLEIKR | Kd | 1.47 |
| H23L16 (antibody, human IgG1, kappa, V domains shown, human gamma1 mutated constant region, human kappa) VH: QVQLVQSGAEVKKPGASVKVSCKASGYTFTSYWMHWVKQRPGQGLEWIGNINPSNGGTNYNEKFKSKATMTVDTSTSTAYMELSSLRSEDTAVYYCELGQGYWGQGTLVTVSS VL: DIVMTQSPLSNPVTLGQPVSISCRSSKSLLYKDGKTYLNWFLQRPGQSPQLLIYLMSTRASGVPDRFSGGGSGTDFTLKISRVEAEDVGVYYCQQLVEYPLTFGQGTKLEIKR | Kd | 3.8 |
| H1L11 (antibody, human IgG1, kappa, V domains shown) VH: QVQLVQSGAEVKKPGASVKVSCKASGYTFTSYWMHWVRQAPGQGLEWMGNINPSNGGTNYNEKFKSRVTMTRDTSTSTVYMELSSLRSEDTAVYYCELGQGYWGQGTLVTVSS VL: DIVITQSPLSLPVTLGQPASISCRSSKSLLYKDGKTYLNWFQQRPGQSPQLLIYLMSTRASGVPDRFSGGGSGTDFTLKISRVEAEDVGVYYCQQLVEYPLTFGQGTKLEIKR | Kd | 22.3 |

Noted for H24L16 (antibody, human IgG1, kappa, V domains shown, human gamma1 mutated constant region, human kappa) VH: QVQLVQSGAEVKKPGASVKVSCKASGYTFTSYWMHWVKQRPGQGLEWIGNINPSNGGTNYNEKFKSKATLTVDTSTSTAYMELSSLRSEDTAVYYCELGQGYWGQGTLVTVSS VL: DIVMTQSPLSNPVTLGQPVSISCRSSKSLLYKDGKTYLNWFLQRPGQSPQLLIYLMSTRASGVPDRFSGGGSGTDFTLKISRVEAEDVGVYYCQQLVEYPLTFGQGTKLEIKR : its Kd reads 3.7

Noted for H20L16 (antibody, human IgG1, kappa, V domains shown, human gamma1 mutated constant region, human kappa; also called H20L16 FL) VH: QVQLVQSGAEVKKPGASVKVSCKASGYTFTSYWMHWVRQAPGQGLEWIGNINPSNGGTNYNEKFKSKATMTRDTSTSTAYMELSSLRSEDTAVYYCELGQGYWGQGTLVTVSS VL: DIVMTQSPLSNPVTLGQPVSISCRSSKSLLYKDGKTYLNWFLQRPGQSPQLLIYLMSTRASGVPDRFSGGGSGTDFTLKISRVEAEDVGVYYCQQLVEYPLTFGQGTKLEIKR : its Kd reads 1.7
